All values here come from patent US20100022491A1.

Molecular target: Adrenergic β2 (Homo sapiens)
Construct: Adherent H292 cells were removed from tissue culture flasks; endogenous in cells; host or cells: H292 cells
Experiment: Adrenergic β2 mediated cAMP production in H292 cells
Assay type: cell-based
Conditions: H292 cells, cAMP by AlphaScreen, 60 minutes at room temperature, rolipram 300 μM; read-out: β2 pEC50 (converted)
Structures can show the parent of a compound that is named as a salt.
reported.endpoint: EC50 (nM)

{"compound": "O=C(CCNCCc1cccc(O)c1)N(CCNCCc1ccc(O)c2[nH]c(=O)sc12)C1CCCCCCC1 [Example 90, bis-trifluoroacetic acid salt]", "tested.system": "Adrenergic β2 (Homo sapiens)", "display.unit": "nM", "EC50": 3.98}
{"compound": "CCCC(CCC)N(CCNCCc1ccc(O)c2[nH]c(=O)sc12)C(=O)CCNCCc1ccc(F)cc1 [Example 64, bis-trifluoroacetic acid salt]", "tested.system": "Adrenergic β2 (Homo sapiens)", "display.unit": "nM", "EC50": 316}
{"compound": "CC(C)(CO)CN(CCNCCc1ccc(O)c2[nH]c(=O)sc12)C(=O)CCNCCc1ccc(Cl)cc1 [Example 40, diacetic acid salt]", "tested.system": "Adrenergic β2 (Homo sapiens)", "display.unit": "nM", "EC50": 63.1}
{"compound": "CC(C)(CNCCC(=O)N(CCNCCc1ccc(O)c2[nH]c(=O)sc12)C1CCCC1)c1ccccc1 [Example 32, bis-trifluoroacetic acid salt]", "tested.system": "Adrenergic β2 (Homo sapiens)", "display.unit": "nM", "EC50": 79.4}
{"compound": "O=C(CCNCCc1ccc2c(c1)OCCO2)N(CCNCCc1ccc(O)c2[nH]c(=O)sc12)C1CCCCCC1 [Example 88, bis-trifluoroacetic acid salt]", "tested.system": "Adrenergic β2 (Homo sapiens)", "display.unit": "nM", "EC50": 25.1}

(A) COc1ccc(CCNCCC(=O)N(CCNCCc2ccc(O)c3[nH]c(=O)sc23)C2CCCCCC2)cc1OC [Example 86, bis-trifluoroacetic acid salt]
(B) COc1ccc(CCNCCC(=O)N(CCNCCc2ccc(O)c3[nH]c(=O)sc23)C2CCCCC2)cc1 [Example 68, bis-trifluoroacetic acid salt]
I'm curious, which of these has a smaller EC50 number: A or B ? Answer by quoting the chosen item's label.
B

(I) CC(C)(C)CN(CCNCCc1ccc(O)c2[nH]c(=O)sc12)C(=O)CCNCCc1ccc(Cl)cc1 [Example 8, bis-trifluoroacetic acid salt]
(II) CC(C)(CNCCC(=O)N(CCNCCc1ccc(O)c2[nH]c(=O)sc12)C1CCCCC1)c1ccccc1 [Example 21, bis-trifluoroacetic acid salt]
(III) CC(C)(C)CN(CCNCCc1ccc(O)c2[nH]c(=O)sc12)C(=O)CCNCCc1cccc(Cl)c1 [Example 7, bis-trifluoroacetic acid salt]
# rank by EC50, ascending (min first) Please list the labels according to the requested order.
III, I, II
(III: 3.98 nM, I: 10 nM, II: 31.6 nM)

====

Biological target: recombinant human adrenergic beta 1 receptors (Homo sapiens, UniProt P08588)
Construct: purchased Euroscreen
Sequence (P08588 whole entry): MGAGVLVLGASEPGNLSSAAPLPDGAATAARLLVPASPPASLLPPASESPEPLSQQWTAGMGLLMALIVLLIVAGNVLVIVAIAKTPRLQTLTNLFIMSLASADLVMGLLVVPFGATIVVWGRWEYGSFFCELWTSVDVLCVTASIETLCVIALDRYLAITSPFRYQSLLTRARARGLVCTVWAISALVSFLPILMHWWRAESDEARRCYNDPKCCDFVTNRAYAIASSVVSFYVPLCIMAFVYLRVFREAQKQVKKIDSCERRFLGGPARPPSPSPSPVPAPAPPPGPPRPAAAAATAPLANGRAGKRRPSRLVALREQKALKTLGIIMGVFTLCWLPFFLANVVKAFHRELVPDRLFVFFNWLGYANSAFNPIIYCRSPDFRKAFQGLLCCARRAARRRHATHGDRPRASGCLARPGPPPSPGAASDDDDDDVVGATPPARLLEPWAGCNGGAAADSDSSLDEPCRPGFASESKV
Assay: Adrenergic β1 selectivity binding assay ([125I]-Iodocyanopindolol)
Details: inhibition of [125I]-Iodocyanopindolol (0.036 nM) binding; read-out: β1 bind p IC50 (converted)
Counter-ions that a name gives are not always drawn.
reported.endpoint: IC50 (nM)

{"compound": "O=C(CCNCCc1ccccc1)N(CCNCCc1ccc(O)c2[nH]c(=O)sc12)CC12CC3CC(CC(C3)C1)C2 [Example 59, bis-trifluoroacetic acid salt]", "IC50 [nM]": 794}

(1) CCCC(CCC)N(CCNCCc1ccc(O)c2[nH]c(=O)sc12)C(=O)CCNCCc1cccc(F)c1 [Example 63, bis-trifluoroacetic acid salt]
(2) O=C(CCNCCc1ccc(F)cc1)N(CCNCCc1ccc(O)c2[nH]c(=O)sc12)C1CCCCC1 [Example 16, bis-trifluoroacetic acid salt]
Hi, I'm comparing 1 with 2 and wondering which one has the bigger number for IC50. Any idea? Answer by quoting the chosen item's label.
2
(2: 7940 nM, 1: 2510 nM)

(1) CC(CN(C(=O)CCNCCc1cccc(F)c1)C1CCCCCC1)NCCc1ccc(O)c2[nH]c(=O)sc12 (stereo not drawn) [Example 104, bis-trifluoroacetic acid salt]
(2) O=C(CCNCCc1cc(F)ccc1F)N(CCNCCc1ccc(O)c2[nH]c(=O)sc12)C1CCCCC1 [Example 79, bis-trifluoroacetic acid salt]
Hi, I'm comparing 1 with 2 and wondering which one has the bigger number for IC50. Any idea? Answer by quoting the chosen item's label.
2

====

Biological target: recombinant human Dopamine Subtype D2s receptors (Homo sapiens)
Construct: purchased Perkin Elmer
Sequence (P14416 1-414 isoform P14416-2): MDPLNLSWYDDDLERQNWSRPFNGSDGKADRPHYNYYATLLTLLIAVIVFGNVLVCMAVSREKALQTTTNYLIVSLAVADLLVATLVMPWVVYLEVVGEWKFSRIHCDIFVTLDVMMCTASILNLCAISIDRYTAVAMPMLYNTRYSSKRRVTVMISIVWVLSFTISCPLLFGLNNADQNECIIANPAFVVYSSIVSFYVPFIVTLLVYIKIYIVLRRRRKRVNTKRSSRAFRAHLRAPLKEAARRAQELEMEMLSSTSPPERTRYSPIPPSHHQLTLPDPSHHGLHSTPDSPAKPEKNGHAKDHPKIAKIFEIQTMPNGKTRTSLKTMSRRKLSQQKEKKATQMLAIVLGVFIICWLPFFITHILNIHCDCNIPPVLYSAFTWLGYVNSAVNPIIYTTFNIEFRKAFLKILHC
Experiment: Dopamine D2 selectivity binding assay ([3H]-spiperone)
Settings: inhibition of [3H]-spiperone (0.16 nM) binding; read-out: D2 bind pIC50 (converted)
Where a name gives a salt, the structure may show the parent alone.
reported.endpoint: IC50 (nM)

These recorded examples may help you get a feel for the data.
{"compound": "O=C(CCNCCc1cccc(F)c1F)N(CCNCCc1ccc(O)c2[nH]c(=O)sc12)C1CCCCCC1 [Example 56, bis-trifluoroacetic acid salt]", "tested.system": "recombinant human Dopamine Subtype D2s receptors (Homo sapiens)", "reported.endpoint": "IC50", "observed.measurement": 31.6}
{"compound": "COc1cccc(CCNCCC(=O)N(CCNCCc2ccc(O)c3[nH]c(=O)sc23)CC(C)(C)C)c1 [Example 43, bis-trifluoroacetic acid salt]", "tested.system": "recombinant human Dopamine Subtype D2s receptors (Homo sapiens)", "reported.endpoint": "IC50", "observed.measurement": 200}
{"compound": "CC(C)(CNCCC(=O)N(CCNCCc1ccc(O)c2[nH]c(=O)sc12)C1CCCC1)c1ccccc1 [Example 32, bis-trifluoroacetic acid salt]", "tested.system": "recombinant human Dopamine Subtype D2s receptors (Homo sapiens)", "reported.endpoint": "IC50", "observed.measurement": 398}

(I) O=C(CCNCCc1cccs1)N(CCNCCc1ccc(O)c2[nH]c(=O)sc12)C1CCCCC1 [Example 35, bis-trifluoroacetic acid salt]
(II) CC1(C)CCC(N(CCNCCc2ccc(O)c3[nH]c(=O)sc23)C(=O)CCNCCc2cccc(O)c2)CC1 [Example 91, bis-trifluoroacetic acid salt]
(III) CC(C)(CO)CN(CCNCCc1ccc(O)c2[nH]c(=O)sc12)C(=O)CCNCCc1ccc(Cl)cc1 [Example 40, diacetic acid salt]
Rank by IC50 (largest to smallest). Please list the labels according to the requested order.
III, I, II

====

Target: recombinant human adrenergic beta 1 receptors (Homo sapiens, UniProt P08588)
Construct: purchased Euroscreen
Test: Adrenergic β1 selectivity binding assay ([125I]-Iodocyanopindolol)
Details: inhibition of [125I]-Iodocyanopindolol (0.036 nM) binding
Counter-ions that a name gives are not always drawn.
reported.endpoint: β1 bind p IC50
Please give only the number in your answer, with no unit.

{"molecule": "O=C(CCNCCc1cc(F)cc(F)c1)N(CCNCCc1ccc(O)c2[nH]c(=O)sc12)C1CCCCC1 [Example 92, dihydrobromide salt]", "tested.system": "recombinant human adrenergic beta 1 receptors (Homo sapiens, UniProt P08588)", "β1 bind p IC50": 5.4}
{"molecule": "O=C(CCNCCc1cccc(F)c1)N(CCNCCc1ccc(O)c2[nH]c(=O)sc12)C1CCCCC1 [Example 15, bis-trifluoroacetic acid salt]", "tested.system": "recombinant human adrenergic beta 1 receptors (Homo sapiens, UniProt P08588)", "β1 bind p IC50": 5.2}
{"molecule": "O=C(CCNCCc1cccc(F)c1)N(CCNCCc1ccc(O)c2[nH]c(=O)sc12)C1CCCCCC1", "tested.system": "recombinant human adrenergic beta 1 receptors (Homo sapiens, UniProt P08588)", "β1 bind p IC50": 5.5}

What does the record list as β1 bind p IC50 for O=C(CCNCCc1ccc(Cl)c(Cl)c1)N(CCNCCc1ccc(O)c2[nH]c(=O)sc12)C1CCOCC1 [Example 94, dihydrobromide salt] ?
5.7

What does the record list as β1 bind p IC50 for O=C(CCNCCc1cccc(F)c1F)N(CCNCCc1ccc(O)c2[nH]c(=O)sc12)C1CCCCC1 [Example 93, dihydrobromide salt] ?
5.2

====

Molecular target: Adrenergic β2 (Homo sapiens, UniProt P07550)
Construct: Adherent H292 cells were removed from tissue culture flasks; endogenous in cells; host or cells: H292 cells
Sequence (P07550 whole entry): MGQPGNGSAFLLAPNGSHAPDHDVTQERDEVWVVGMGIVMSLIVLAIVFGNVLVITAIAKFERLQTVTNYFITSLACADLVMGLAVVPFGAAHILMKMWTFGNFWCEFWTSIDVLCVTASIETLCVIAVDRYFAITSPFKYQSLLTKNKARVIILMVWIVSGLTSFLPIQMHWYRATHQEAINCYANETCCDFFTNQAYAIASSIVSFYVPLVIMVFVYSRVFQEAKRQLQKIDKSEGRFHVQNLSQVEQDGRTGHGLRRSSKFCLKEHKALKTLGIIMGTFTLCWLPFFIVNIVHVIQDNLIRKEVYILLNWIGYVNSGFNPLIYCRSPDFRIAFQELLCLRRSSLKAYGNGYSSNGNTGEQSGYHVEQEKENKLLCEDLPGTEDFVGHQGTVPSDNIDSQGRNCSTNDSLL
Assay: Adrenergic β2 mediated cAMP production in H292 cells
Assay type: cell-based
Conditions: Intrinsic Activity as a fraction relative to the maximum activity determined for formoterol
Counter-ions that a name gives are not always drawn.
reported.endpoint: β2 Int Act

{"compound": "O=C(CCNCCc1c(F)cccc1F)N(CCNCCc1ccc(O)c2[nH]c(=O)sc12)C1CCCCCC1 [Example 84, bis-trifluoroacetic acid salt]", "β2 Int Act": 0.89}
{"compound": "CC(C)(CO)CN(CCNCCc1ccc(O)c2[nH]c(=O)sc12)C(=O)CCNCCc1ccccc1Cl [Example 65, bis-trifluoroacetic acid salt]", "β2 Int Act": 0.59}
{"compound": "Cc1cccc(CCNCCC(=O)N(CCNCCc2ccc(O)c3[nH]c(=O)sc23)C2CCOCC2)c1 [Example 25, bis-trifluoroacetic acid salt]", "β2 Int Act": 1.05}

(P) O=C(CCNCCc1cc(F)cc(F)c1)N(CCNCCc1ccc(O)c2[nH]c(=O)sc12)C1CCCCCC1 [Example 58, bis-trifluoroacetic acid salt]
(Q) CC(C)(C)CN(CCNCCc1ccc(O)c2[nH]c(=O)sc12)C(=O)CCNC(C)(C)Cc1ccccc1 [Example 38, bis-trifluoroacetic acid salt]
Hi, I'm comparing P with Q and wondering which one has the bigger number for β2 Int Act. Any idea? Answer by quoting the chosen item's label.
P
